src = patent US20250027068A1

test.system: pooled human IgG (human); note: test concentration or dose not given here
measurement.notes: cell-based or functional assay
measurement.name: Enzyme Activity Endpoint Assay (purified): IgG

binder	value.measured
PRT-218 (enzyme) MEVVEVWPYGQNPNGKTEILSQTEDSESLQRLRDIEDFQAEKKKQGVVYTKWLDGVNVDDHEFRKITDGNTEYYATPLLNGRGYYDINKDFNRDSDKCAAAVAANMFHYWLDRNRDNVDRFLRQNPDKHGIIELPDGQLKLSDFLNTYESDHDYRDKSKLFDFISNNFNGPVWTNKLLDNYINGYGYNYKYGRTIEDPTKNTSKINFFKEVFNGKLLTDNHSIRNKNEFSSKLSEALYTGKAIGLSYGPAGLRHSLGHIISVWGADLDEDGNVVAIYVTDSDDKKLTIGDERVGLKRYKVSYDDEGRARLTAYEETDNTGGEIRGLYTLDTGKQYWADYFDKTEQTGTDQAEQLEHHHHHH	1780 ng/µL
PRT-202 (enzyme) MEVVEVWPYGQNPNGKTEILSQTEDSESLQRLRDIEDFQAEKKKQNVVYTKWLDGVDVKDHDFRKIVDGNIAYYATPLLNGRGFYDINKDFNRDSDKCAAAVAANMFHYWLDINRDNVDRFLRQNPEKHGIIELPDGQLKLSDFLNTYESDYGYRDKSKLFDFISNNFNGPVWTDKLLDNYINGYAYNYKYGRTIEDPTKNTSKINFFKKVFNEKILTNIHSIRNQNEFSDLLSEALYTGKAIGLSYGPAGLRHSLGHIISVWGADLDADGNVVAIYVTDSDDKKLTIGDERVGLKRYKISTDDEGRLRLTAYEETDNTGGEIRGLYTLDTGKQAWADYFDKTEQTGTDQAEQLEHHHHHH	1130 ng/µL
